Target: T1, human PD-1 extracellular domain (human, UniProt Q15116 25-170)
T1 construct: extracellular domain; Soluble analyte in the bio-layer interferometry assay; also called recombinant human PD-1 extracellular domain protein
T1 sequence (Q15116 25-170): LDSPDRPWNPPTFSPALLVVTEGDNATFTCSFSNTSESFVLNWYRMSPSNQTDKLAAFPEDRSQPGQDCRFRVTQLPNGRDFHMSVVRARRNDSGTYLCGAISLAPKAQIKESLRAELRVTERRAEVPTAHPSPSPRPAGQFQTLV
Assay: bio-layer interferometry (Octet Red 96), antibody on anti-human Fc biosensor, PD-1 ECD in solution, 1:1 global fit, 30 C
# kon listing for each entry below
Kindly provide the numeric value in M⁻¹ s⁻¹ only, without the unit symbol.

Illustrative cases are given below, each with its answer.
AB1HU (antibody, human IgG1, kappa, V domains shown, Humanized, human gamma-1 / kappa constant domains as in the full-length entries; also called humanized form of antibody AB1) VH: EVQLVESGGGLVQPGGSLRLSCAASGFDFSSGYWICWVRQAPGKGLELIACIYAGTSGSTSYASWARGRFTISETSKNTVTLQMNSLRAEDSAVYYCARNLYTYNSLWGQGTLVTVSS VL: DIQMTQSPSTLSASVGDRVTITCQSSQSVYDNNWLAWYQQKPGKAPKLLIYTVSTLASGVPSRFSGSGSGTEFTLTISSLQPDDFATYYCQGTYYSSGWNFAFGGGTKVEIKR = 12000
AB3 (antibody, human IgG1, kappa, V domains shown, Rabbit variable domains on human IgG1 / human kappa constant domains; also called AB3 chimeric) VH: QEQVKETGGGLVQPGGSLTLSCKASGFTISSYGVSWVRQAPGKGLEWIALIFPGIGFKDYASWVNGRFTLSSDNAQNTVELQMNSLTAADTAAYFCARDLDLWGQGTLVTVSS VL: QVLTQTPSPVSAAVGGTVSISCQSSPSVYSNYLSWFQQKPGQPPKLLIYYASTLASGVPSRFKGSGSGTQFTLTISDVQCDDAATYYCAGGYSSSTRAFGGGTEVVVKR = 130000
AB2 (antibody, human IgG1, kappa, V domains shown, Rabbit variable domains on human IgG1 / human kappa constant domains; also called AB2 chimeric) VH: QEQLVESGGGLVQPEGSLTLTCTASGFSFSSYWMCWVRQAPGKGLEWIGCITTGSGSTYYASWAKRRFTISKTSSTTVTLQMTSLTAADTATYFCTRAFDLWGPGTLVTVSS VL: DVVMTQTPASVSAVVGGTVTIKCQASQSIYSYLNWYQQKPGQPPKLLIYGASNLASGVSSRFKGSGSGTEFTLTISDLECADAATYYCQCSWLSGAVGNAFGGGTEVVVKR = 67000

Any idea what kon was measured for AB5 (antibody, human IgG1, kappa, V domains shown, Rabbit variable domains on human IgG1 / human kappa constant domains; also called AB5 chimeric) VH: QEQLEESGGDLVKPEGSLTLTCTASGFSFSSSHWICWVRQAPGKGLEWIACIYTGSIDVFYCASWAKGRFTISKPSSTTVTLQVPSLTAADTATYFCARAANTDTTYFNLWGPGTLVTVSS VL: AYDMTQTPSSVSAAVGGTVTINCQASQSINNQLSWYQQKPGQPPKLLIYGASTLASGVPSRFTGSGSGTEFTLTISGVQCDDAATYYCHVHYCSGGSCFWAFGGGTEVVVKR ?
78000

Values were extracted from patent US20200157219A1.
